Test system: HOP-92
test_name: NCI tumour cell line growth inhibition, 48 h
Activity calls are given as the source filed them. No stated cut-off is given here; in the data, active = GI50 up to about 1.1 µM and inactive = higher.
value_type: GI50

Incoming: Sample CN1C(=O)CC2CCCN2C1=O (stereo not drawn) — what was its GI50?
Outgoing: 86.9 µM (inactive)

Incoming: Sample CC1OC(O[C@@H]2OC=C(C=O)[C@@]3(O)CC[C@H](C)[C@@H]23)C(O)C(O)C1O (stereo partly drawn) — what was its GI50?
Outgoing: > 100 µM (inactive)

Incoming: Sample O=[N+]([O-])c1cc(Cc2cc([N+](=O)[O-])c3cccnc3c2O)c(O)c2ncccc12 — what was its GI50?
Outgoing: 5.96 µM (inactive)

Incoming: Sample CN(C)C=C1C(Cl)=C(C=O)CC(C=O)=C1Cl — what was its GI50?
Outgoing: 4.2 µM (inactive)

Incoming: Sample Clc1ccc(-c2noc(CN3CCCCC3)n2)cc1 — what was its GI50?
Outgoing: > 100 µM (inactive)

Incoming: Sample Clc1ccc(-c2c(C3=NCCCN3)nnn2-c2ccccc2)cc1 — what was its GI50?
Outgoing: 34.9 µM (inactive)

Incoming: Sample CCCCc1c2c(nc3c1CCCC3O)CCCC2 (stereo not drawn) — what was its GI50?
Outgoing: 79.4 µM (inactive)

Incoming: Sample CCOC(=O)N(c1ccccc1)N(CC)C(=O)/C(C)=N/Nc1ccc([N+](=O)[O-])cc1 — what was its GI50?
Outgoing: 15.5 µM (inactive)

Incoming: Sample COC(=O)C1(Cc2ccccc2)Cc2ccccc2C1=O (stereo not drawn) — what was its GI50?
Outgoing: 59.2 µM (inactive)

Incoming: Sample CCC1(CN(C)C)CC/C(=C\c2ccc(OC)cc2)C1=O (stereo not drawn) — what was its GI50?
Outgoing: > 100 µM (inactive)

Incoming: Sample Oc1ccc(-c2cn3cc(C(F)(F)F)ccc3n2)cc1 — what was its GI50?
Outgoing: > 100 µM (inactive)

Incoming: Sample COC(=O)c1c(C)cccc1C1CN=NC12Cc1cccc(C)c1C2=O (stereo not drawn) — what was its GI50?
Outgoing: 14.8 µM (inactive)

Incoming: Sample CC(C)(C)c1cc2c(O)c(c1)Cc1cc(C(C)(C)C)cc(c1O)Cc1cc(C(C)(C)C)cc(c1O)Cc1cc(C(C)(C)C)cc(c1O)Cc1cc(C(C)(C)C)cc(c1O)Cc1cc(C(C)(C)C)cc(c1O)Cc1cc(C(C)(C)C)cc(c1O)Cc1cc(C(C)(C)C)cc(c1O)C2 — what was its GI50?
Outgoing: > 50 µM (inactive)
